The measured values listed here are drawn from ChEMBL document CHEMBL3352578.

Assay: Oral bioavailability in Sprague-Dawley rat at 10 mg/kg
Assay type: ADME, organism-based
Settings: in vivo
# bioavailability values compiled below
Give the value in % but do not write % after it.

Completed entries (count: 3):
N#Cc1c(N2CCC(c3ccccc3)CC2)ccn(CC2CC2)c1=O ... 51
CCCCn1ccc(N2CCC(c3ccccc3)CC2)c(Cl)c1=O [JNJ-40411813] ... 31
O=c1c(Cl)c(N2CCC(c3ccccc3)CC2)ccn1CC1CC1 ... 34

Shifting focus to the compound that follows.
(Q) # lookup: bioavailability of CC(C)Cn1ccc(N2CCC(c3ccccc3)CC2)c(Cl)c1=O
(A) 25

* * *

Target: Metabotropic glutamate receptor 2 (Homo sapiens, UniProt Q14416)
Sequence (Q14416 whole entry): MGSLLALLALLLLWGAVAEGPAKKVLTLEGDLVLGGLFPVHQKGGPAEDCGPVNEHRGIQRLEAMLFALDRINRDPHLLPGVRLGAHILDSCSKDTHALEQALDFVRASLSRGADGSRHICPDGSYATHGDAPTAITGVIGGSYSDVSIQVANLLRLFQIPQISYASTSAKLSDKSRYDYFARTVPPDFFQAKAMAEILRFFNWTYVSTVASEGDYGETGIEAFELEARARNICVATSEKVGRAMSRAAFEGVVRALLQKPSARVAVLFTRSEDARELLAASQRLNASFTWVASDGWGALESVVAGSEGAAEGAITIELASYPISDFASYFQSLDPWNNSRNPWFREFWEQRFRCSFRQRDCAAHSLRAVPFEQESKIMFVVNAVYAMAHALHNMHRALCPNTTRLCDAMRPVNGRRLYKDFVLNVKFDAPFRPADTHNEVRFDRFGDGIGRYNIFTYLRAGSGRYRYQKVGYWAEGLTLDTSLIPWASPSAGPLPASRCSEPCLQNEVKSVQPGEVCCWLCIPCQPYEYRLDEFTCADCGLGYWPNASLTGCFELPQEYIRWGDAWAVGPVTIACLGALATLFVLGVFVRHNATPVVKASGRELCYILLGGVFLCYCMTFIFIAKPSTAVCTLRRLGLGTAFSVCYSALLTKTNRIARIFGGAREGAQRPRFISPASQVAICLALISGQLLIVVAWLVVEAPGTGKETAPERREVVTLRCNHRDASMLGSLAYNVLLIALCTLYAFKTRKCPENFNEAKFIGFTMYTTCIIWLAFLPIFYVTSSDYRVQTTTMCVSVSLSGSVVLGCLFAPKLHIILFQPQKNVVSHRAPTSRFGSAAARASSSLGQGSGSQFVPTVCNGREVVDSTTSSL
Test: Positive allosteric modulation of human mGlu2 receptor expressed in CHO cells assessed as potentiation of glutamate-induced effect incubated for 30 mins prior to [35S]GTPgamma addition measured after 30 mins
Type: functional, cell-based
property: log10(EC50) (log10 of the value in nM)
Would you kindly interpret these values as log10 of EC50 expressed in nM?

Worked set:
N#Cc1c(N2CCC(c3ccc(F)cc3)CC2)ccn(CC2CC2)c1=O ... 1.95
N#Cc1c(N2CCC(c3ccccc3)CC2)ccn(CCCC(F)(F)F)c1=O ... 2.55
CC(C)CCn1ccc(N(C)Cc2ccccc2)c(C#N)c1=O ... 4.03
N#Cc1c(N2CCC(c3cccc(F)c3)CC2)ccn(CC2CC2)c1=O ... 2.15

(Q) // fetch Metabotropic glutamate receptor 2 (Homo sapiens, UniProt Q14416) log10(EC50) for N#Cc1c(N2CCC(c3ccc(Cl)cc3)CC2)ccn(CC2CC2)c1=O
(A) 1.68

(Q) Look up log10(EC50) with Metabotropic glutamate receptor 2 (Homo sapiens, UniProt Q14416) for this molecule: COc1ccc(C2CCN(c3ccn(CC4CC4)c(=O)c3C#N)CC2)cc1
(A) 1.99

(Q) API: value(readout= log10(EC50), system= Metabotropic glutamate receptor 2 (Homo sapiens, UniProt Q14416), query= CC(C)CCn1ccc(CCc2ccccc2)c(C#N)c1=O )
(A) 2.56

(Q) Lookup: log10(EC50) / Metabotropic glutamate receptor 2 (Homo sapiens, UniProt Q14416) / N#Cc1c(N2CCC(c3ccccc3)CC2)ccn(CC2CCC2)c1=O
(A) 1.74

(Q) Query the reported log10(EC50) for Metabotropic glutamate receptor 2 (Homo sapiens, UniProt Q14416); item: N#Cc1c(N2CCC(c3ccccc3F)CC2)ccn(CC2CC2)c1=O
(A) 1.91

(Q) API: value(readout= log10(EC50), system= Metabotropic glutamate receptor 2 (Homo sapiens, UniProt Q14416), query= CC(C)CCn1ccc(N2CCCC(c3ccccc3)C2)c(C#N)c1=O (stereo not drawn) )
(A) 3.52
